# system: human CARM1 (PRMT4) (Homo sapiens (Human), UniProt Q86X55)
# Sequence (Q86X55 other isoform, or with tags, fused parts or gaps isoform Q86X55-1): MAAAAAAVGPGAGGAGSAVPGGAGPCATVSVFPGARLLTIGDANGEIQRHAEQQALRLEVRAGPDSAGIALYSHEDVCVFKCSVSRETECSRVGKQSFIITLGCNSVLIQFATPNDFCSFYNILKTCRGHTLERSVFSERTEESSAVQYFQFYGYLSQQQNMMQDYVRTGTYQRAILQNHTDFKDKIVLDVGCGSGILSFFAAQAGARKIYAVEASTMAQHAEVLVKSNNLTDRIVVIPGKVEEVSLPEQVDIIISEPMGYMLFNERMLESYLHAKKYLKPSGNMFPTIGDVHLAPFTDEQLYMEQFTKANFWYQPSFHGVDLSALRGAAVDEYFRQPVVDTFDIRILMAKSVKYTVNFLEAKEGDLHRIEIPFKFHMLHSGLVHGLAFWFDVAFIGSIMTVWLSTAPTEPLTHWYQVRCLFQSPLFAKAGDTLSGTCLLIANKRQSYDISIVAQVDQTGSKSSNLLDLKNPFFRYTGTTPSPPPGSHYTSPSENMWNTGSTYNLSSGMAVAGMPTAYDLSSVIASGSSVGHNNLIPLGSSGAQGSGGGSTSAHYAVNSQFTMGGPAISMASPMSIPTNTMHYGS
pIC50: −log10 of the molar value.

| molecule | pIC50 |
| --- | --- |
| CNCC(O)COc1cccc(-c2nc(NCCOC)cc(-c3ccc(OC)c(OC)c3)n2)c1 (centres unmarked) [Example 630-1a] | 6.00 to 7.00 |
| CNCC(O)COc1cccc(-c2nc(NC3CCOCC3)c(C)c(-c3c(C)noc3C)n2)c1Cl (centres unmarked) [Example 79-3] | 5.00 to 5.52 |
| CNCC(O)COc1cccc(-c2nc(N3CCN(C(C)=O)C4(CC4)C3)cc(N(C)C3CCOCC3)n2)c1 (centres unmarked) [Example 523-1a] | 6.00 to 7.00 |
| CNCC(O)COc1cccc(-c2nc(C(=O)N(C)CC3CCOCC3)cc(N(C)C3CCOCC3)n2)c1 (centres unmarked) [Example 592-1a] | 6.00 to 7.00 |
| CCc1c(N[C@@H]2CCOC2)nc(-c2cccc(OCC(O)CNC)c2)nc1N1CCOCC1 (some centres unmarked) [Example 404-1a] | 6.00 to 7.00 |
| CNCC(O)COc1cccc(-c2nc(NCC(F)(F)F)cc(-c3cncnc3)n2)c1 (centres unmarked) [Example 626-1a] | 5.52 to 6.00 |
| CNCC(O)COc1cccc(-c2nc(-c3c(C)ncnc3C)cc(N(C)C3CCOCC3)n2)c1 (centres unmarked) [Example 556-1a] | 6.00 to 7.00 |
| CNCC(O)COc1cccc(-c2nc(NC3CCOC3)c(C)c(N3CCC4(CCCO4)CC3)n2)c1 (centres unmarked) [Example 420-1a] | 6.00 to 7.00 |
